test: PK in rats after i.v. C118P; assay type: in vivo, SD rats; details: both sexes, SD, rat, intravenous; rats, plasma, i.v. C118P 50 mg/kg, n = 6; read-out: C2min (C30s for Rat)
measurement-kind: concentration at 30 s (ng/mL)
Just the number please, in ng/mL, no unit attached.

Look at this compound and give its reported concentration at 30 s. COc1cc(OC)cc(-c2nc[nH]c2-c2ccc(OC)c(O)c2)c1
20600

###

assay: PK in rats after i.v. C118P; format: in vivo, SD rats; settings: both sexes, SD, rat, in vivo, iv; rats, plasma, i.v. C118P 20 mg/kg, n = 6
measurement-kind: half-life (min)
Just the number please, in min, no unit attached.

Look at this molecule and give its reported half-life. COc1cc(OC)cc(-c2nc[nH]c2-c2ccc(OC)c(OP(=O)([O-])[O-])c2)c1.[Na+].[Na+] [C118P]
22.8
